test: Half life in C57/bl6 mouse at 1 mg/kg, iv and 10 mg/kg, po; format: ADME, organism-based; conditions: in vivo
OBSERVABLE: half-life (h)
Give the value, in units of h, as a plain number.

[in] Consider the molecule Cc1cc2cn[nH]c2cc1-c1cccc2c(N)c(C(N)=O)nnc12 . State its measured half-life.
[out] 1.6

----------
tested on: MDR1; assay: Apparent permeability across apical to basolateral side in pig LLC-PK1 cells expressing MDR1; type: ADME, cell-based, Sus scrofa
OBSERVABLE: Papp A→B (×10⁻⁶ cm/s)
Reply numerically in ×10⁻⁶ cm/s, unit not repeated.

[in] Give reported Papp A→B value for Cn1cc(-c2cccc3c(N)c(C(N)=O)nnc23)cn1
[out] 28.8
